- assay-comment: Octanol-water partition coefficient, log P of nonionized form of compound
- Format: physicochemical
logP listing for selected molecules.
Write the value as a bare number.

Solved entries:
molecule	logP
C=CCC1(C(C)C#CCC)C(=O)N=C(O)N(C)C1=O (centres undefined)	2.19
C=CCC1(C(C)C)C(=O)NC(=O)NC1=O	1.15
CCC1(CC)C(=O)NC(=O)NC1=O	0.65

*Q* Answer with the recorded logP for the molecule listed here: CN1C(=O)NC(=O)C(C)(C2=CCCCC2)C1=O (centres undefined) [HEXOBARBITAL]
*A* 1.92

----------
Reported logD is given for each of the following compounds.
- assay-comment: Octanol-buffer partition coefficient, log P of the compound at pH 8.0 by ultraviolet spectroscopy
- Type: physicochemical
Keep it simple and answer with nothing but the number.

O=C(O)c1ccccc1NS(=O)(=O)c1ccccc1 -0.46

*Q* Look up logD of `O=C(O)c1ccccc1NS(=O)(=O)c1ccc(Br)cc1` and report it.
*A* 0.83

*Q* In one line, give reported logD of the entry `O=C(O)c1ccccc1NS(=O)(=O)c1ccc([N+](=O)[O-])cc1` .
*A* -0.03

*Q* Tell us which logD value is on record for `O=C(O)c1ccccc1NS(=O)(=O)c1ccc(F)cc1`
*A* 0.03

*Q* Identify the reported logD for the following entry. `O=C(O)c1ccccc1NS(=O)(=O)c1ccc(Cl)cc1`
*A* 0.54

*Q* Supply recorded logD for `Cc1ccc(S(=O)(=O)Nc2ccccc2C(=O)O)cc1` here.
*A* 0.05

----------
- assay-comment: Octanol-water partition coefficient, log P of nonionized form of compound
- Assay type: physicochemical
Classify: Y when logP is strictly less than 2; N when logP is not.

Below, 2 molecules whose answers are already recorded.
molecule	assigned-label
C=CCC1(C(C)CCC)C(=O)N=C(S)NC1=O (stereo unspecified)	N
CCC(C)C1(CC)C(=O)NC(=O)NC1=O (stereo unspecified)	Y

Query molecule follows.
*Q* Does this molecule meet the criterion logP < 2? `CCC1(C2=CCCCC2)C(=O)NC(=O)NC1=O`
*A* Y

----------
- assay-comment: Retention index of the compound by HPLC method
- Format: physicochemical
observable: Retention_index
Respond with the number and no other words.

Example molecules with recorded Retention_index:
molecule	observable	result-value
C=CCC1(C(C)C#CCC)C(=O)N=C(O)N(C)C1=O (configuration not stated) [METHOHEXITAL]	Retention_index	776
CCC1(CCC(C)C)C(=O)NC(=O)NC1=O [AMOBARBITAL]	Retention_index	681
CCCCC1(CC)C(=O)NC(=O)NC1=O [BUTETHAL]	Retention_index	610
O=C(O)c1ccccc1NS(=O)(=O)c1ccc(Cl)cc1	Retention_index	656
CCC1(CC)C(=O)NC(=O)NC1=O [BARBITAL]	Retention_index	423
CCCC(C)C1(CC)C(=O)NC(=S)NC1=O (configuration not stated) [THIOPENTAL]	Retention_index	732

*Q* Quick one: give measured Retention_index for `O=C(O)c1ccccc1NS(=O)(=O)c1ccc([N+](=O)[O-])cc1`
*A* 586

*Q* State its Retention_index: CCC1(c2ccccc2)C(=O)NC(=O)NC1=O [PHENOBARBITAL]
*A* 523

*Q* Give the reported value of Retention_index for this record: C=CCC1(C(C)CCC)C(=O)N=C(S)NC1=O (configuration not stated) [THIAMYLAL]
*A* 760

*Q* Give me measured Retention_index, please, for this molecule: O=C1CC(=O)NC(=O)N1 [BARBITURIC ACID]
*A* 53

*Q* Let me know recorded Retention_index for CCCC(C)C1(CC)C(=O)NC(=O)NC1=O (configuration not stated) [PENTOBARBITAL] , thanks.
*A* 686

*Q* Item C=CCC1(CC(C)C)C(=O)NC(=O)NC1=O [BUTALBITAL] : provide Retention_index
*A* 616
